# melting point per entry

- Compound: "Cc1ccccc1NC(=O)NCC1(c2ccccc2)CCCCC1"
  melting point: "171 to 174 °C"
- Compound: "Nc1sc2c(c1C(=O)c1ccc(Cl)cc1)CCN(C(=O)OCc1ccccc1)C2"
  melting point: "60 to 62 °C"
- Compound: "COc1ccc2c(c1)C(=O)CC21CNC(=O)C1 (stereo unspecified)"
  melting point: "179 to 180 °C"
- Compound: "O=C(O)c1ccc(-c2nc(-c3ccc(C(F)(F)F)cc3)no2)cc1"
  melting point: "293 to 294 °C"
- Compound: "Cc1nnc2nc(-c3cccc(C(F)(F)F)c3)cnn12"
  melting point: "230 to 233 °C"
- Compound: "COc1ccc(-c2cc3oc(=O)c4ccccc4c3nn2)cc1"
  melting point: "270 °C"
- Compound: "COc1ccc2c(c1)C(c1ccc([N+](=O)[O-])cc1)=Nn1c(C)nnc1C2"
  melting point: "192 to 194 °C"
- Compound: "C#CCOc1cc(C=O)ccc1OC"
  melting point: "66 to 67 °C"
- Compound: "Cc1ccnc(-c2c(C)noc2C)c1OC1SCC(O)C(O)C1O (stereo unspecified)"
  melting point: "70 to 100 °C"
- Compound: "CC(C)NCC(O)COc1cccnc1 (stereo unspecified)"
  melting point: "84 to 87 °C"
- Compound: "CCN(CC)CCOc1ccc(Nc2ncc3c(n2)N(C)C(=O)N(Cc2ccc(OC)cc2)C3)cc1"
  melting point: "112 °C"
- Compound: "CCCCNC(=O)C1=C(C(=O)Nc2cc(OC3CCCC3)c(Cl)cc2F)CCCC1"
  melting point: "142 to 144 °C"
- Compound: "COc1cc(C)c(C(=O)c2c(Cl)cccc2Cl)c(OC(=O)Cc2ccccc2)c1OC"
  melting point: "106 °C"
- Compound: "CCC(CC)NCc1cnc2c(C)c(NC(=O)c3ccc(OC[C@@H]4CCCO4)cc3)ccc2c1"
  melting point: "113 to 115 °C"
- Compound: "Cc1cnc2c(NC(=O)c3c(Cl)cccc3Cl)cccc2c1N1CCN(C)C1=O"
  melting point: "288 °C"
- Compound: "CCCC[C@H](NC(=O)[C@H](CC(C)C)NC(=O)OC(C)(C)C)C(=O)CCCc1cccs1"
  melting point: "70 to 72 °C"
- Compound: "N#CCCNC(=O)c1cccc(-c2ccc3c(c2)N(Cc2cc(Cl)ccc2Cl)CC3)c1"
  melting point: "152 to 153 °C"
- Compound: "COc1cc(C(C)C)c(Oc2cnc(N)nc2N)cc1-c1ccco1"
  melting point: "199 to 203 °C"
- Compound: "CC(=O)Nc1ccc(C(=O)O)cc1NC(=O)CO"
  melting point: "214 to 215 °C"
- Compound: "CN(C(=O)c1nnc2ccccc2c1O)c1ccc(Cl)cc1"
  melting point: "249 to 253 °C"
- Compound: "O=C(/C=C/c1ccc(O)cc1)CC(=O)/C=C/c1ccccc1CO"
  melting point: "173 to 180 °C"

----------
# melting point per entry

- Compound: "O=C(NC(CCCN1CCN(c2ncc(F)cn2)CC1)c1ccc(F)cc1)c1ccc(F)cc1 (stereo unspecified)"
  melting point: "147 to 148 °C"
- Compound: "CSc1nc(F)cc(F)n1"
  melting point: "31 to 32 °C"
- Compound: "CC(C)C1C(=O)N(CC(=O)O)C(c2ccccc2)=CN1C(=O)c1cccnc1 (racemic)"
  melting point: "230 to 240 °C"
- Compound: "CC(=O)Nc1cc(C)c(N)c(C)c1"
  melting point: "148 °C"
- Compound: "O=C(O)CCCc1cc2nc(C(F)(F)F)ccc2n1S(=O)(=O)c1ccc2c(c1)OCO2"
  melting point: "161 °C"
- Compound: "CCCCN(CCCC)Cc1nc(-c2ncn3c2CN(C)C(=O)c2c(Cl)cccc2-3)no1"
  melting point: "140 to 142 °C"
- Compound: "COc1ccc(C(=O)NCCCCCCCCCCCCNC(=O)c2ccc(OC)cc2)cc1"
  melting point: "169 to 170 °C"
- Compound: "COc1ccc(-c2nc(C(F)(F)F)c[nH]2)cc1"
  melting point: "204 to 206 °C"
- Compound: "CC(C)OC(=N)c1sc2ccccc2c1O"
  melting point: "208 °C"
- Compound: "O=C(NCCCl)NOCc1ccccc1"
  melting point: "67 to 68 °C"
- Compound: "O=C(Nc1ccccc1N1CCc2ccccc21)c1ccccc1"
  melting point: "73 to 76 °C"
- Compound: "COC(=O)C1=C(N)CCC1"
  melting point: "95 to 96 °C"
- Compound: "COc1cc(OC)nc(NC(=O)NS(=O)(=O)c2ccccc2C=C2CCOC2=O)n1"
  melting point: "185 to 190 °C"
- Compound: "Nc1cc(OCC(CO)OCP(=O)(O)O)nc(N)n1 (racemic)"
  melting point: "213 °C"
- Compound: "CCC(C)(C)NC(Nc1cc(Cl)cc(Cl)c1)=C(C#N)S(=O)(=O)c1ccc(Cl)cc1"
  melting point: "189 to 192 °C"
- Compound: "C=CCNC(=O)c1ccc(-c2ccc3nnn(Cc4ccc5ncccc5c4)c3n2)cc1F"
  melting point: "162 to 164 °C"
- Compound: "CS(=O)(=O)c1ccc(-c2oncc2C(=O)C2CC2)cc1Cl"
  melting point: "148 to 150 °C"
- Compound: "CC(C)=CCOc1ccc2c(=O)c3ccccc3oc2c1C(=O)C=Cc1ccccc1"
  melting point: "116 to 118 °C"
- Compound: "Nc1ccc(Oc2cccc(Oc3ccc(N)cc3)n2)cc1"
  melting point: "152 to 154 °C"
- Compound: "COc1ccc(C)cc1NC(=O)Nc1ccc2c(c1)CCN(C(=O)Oc1ccc(C(=O)O)cc1Cl)C2"
  melting point: "196 to 198 °C"
- Compound: "CCNC(=O)N1CCc2[nH]cnc2C1CCC1CCCCC1 (stereo unspecified)"
  melting point: "210 to 212 °C"
